Origin of values: ChEMBL document CHEMBL3608208

# Tested on: Bacillus subtilis
# assay summary: Antimicrobial activity against Bacillus subtilis after 24 hrs by well-diffusion assay; note: test concentration or dose not given here
# Format: functional
parameter: inhibition zone (IZ) (mm)
Answers are plain numbers, in mm.

O=c1n(CCCCCCn2nnn(-c3ccccc3)c2=O)nnn1-c1ccccc1 ... 0
c1ccc(-n2nnnc2SCCCCCCSc2nnnn2-c2ccccc2)cc1 ... 0
O=c1n(CCO)nnn1-c1ccccc1 ... 12
CC(=O)OCn1nnn(-c2ccccc2)c1=S ... 12
O=C(O)CCC(=O)OCn1nnn(-c2ccccc2)c1=S ... 12
CC(=O)OCCn1nnn(-c2ccccc2)c1=O ... 9

Now take the following compound into account.
INPUT: Give the measured inhibition zone (IZ) of CC(=O)OCn1nnn(-c2ccccc2)c1=O .
OUTPUT: 14
